Entries annotated with measured CC50 at 48 h
Experiment: Cytotoxicity in AML12HBV10 cells (MTT assay)
Type: cell-based, murine
Details: mouse, concentration that reduces viability by 50%, serial dilution 50 μM to 0.39 μM
Experimental: Determination of cytotoxicity of compounds of the disclosure in AML12HBV10 cells: To determine the cytotoxicity of the compounds, AML12HBV10 cells were seeded into 96-well plates at a density of 2×10^4 cells per well and cultured in DMEM/F12 media with 10% fetal bovine serum in the absence of tetracycline to allow pgRNA transcription and HBV DNA replication. […] The cell viability was measured by a MTT assay, following procedure provided by the manufacturer (Promega). […]

Completed entries (count: 4):
O=C(Nc1ccc(Cl)c(F)c1)c1cccc2c1OCCO2 [Entry 41] ... > 25 µM
O=C(Nc1cccc(Cl)c1)c1cccc(Cl)c1Cl [Entry 14] ... > 50 µM
O=C(Nc1ccc(Br)cc1F)c1cccc2c1OCCO2 [Entry 29] ... > 10 µM
O=C(Nc1ccc(Cl)cc1F)c1cccc2c1OCCO2 [Entry 37] ... > 10 µM

So, O=C(Nc1cccc(Cl)c1)c1cccc2c1OCO2 [Entry 24] ? Its CC50 at 48 h was > 10 µM

Ref: patent US20190092720A1
